B1: scFv; the commonest letter at each place (parent)
chain 1: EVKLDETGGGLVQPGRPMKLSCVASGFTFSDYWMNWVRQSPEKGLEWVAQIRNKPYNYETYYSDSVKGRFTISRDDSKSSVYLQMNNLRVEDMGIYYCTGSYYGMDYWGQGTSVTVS
chain 2: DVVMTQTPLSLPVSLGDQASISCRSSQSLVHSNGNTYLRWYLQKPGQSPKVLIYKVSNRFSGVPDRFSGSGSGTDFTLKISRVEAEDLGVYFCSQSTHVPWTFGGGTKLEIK

- Variants of: B1
- test.description: Kd (Tite-Seq)
- condition.parameters: with fluorescein; format: scFv 4-4-20, heavy + light
pKd: −log10 of the molar value.
quantity: pKd

Guide cases for pKd, answers given:
[
  {
    "mutant": "chain 1 V37C",
    "pKd": "≥ 9.50"
  },
  {
    "mutant": "chain 1 W108K G109H",
    "pKd": "≤ 5.00"
  },
  {
    "mutant": "chain 1 S30I D31T W36P",
    "pKd": "≤ 5.00"
  },
  {
    "mutant": "chain 1 N35K V37S",
    "pKd": "≤ 5.00"
  },
  {
    "mutant": "chain 1 S30I Y32T",
    "pKd": "≤ 5.00"
  },
  {
    "mutant": "chain 1 W108I",
    "pKd": "≥ 9.50"
  },
  {
    "mutant": "chain 1 F29T Y32P",
    "pKd": "≤ 5.00"
  },
  {
    "mutant": "chain 1 G104F W108F",
    "pKd": "≤ 5.00"
  }
]

[Q] Dear colleague, I am looking for the recorded pKd of the following variant: chain 1 D31M M34K
[A] ≤ 5.00

[Q] Dear colleague, I am looking for the recorded pKd of the following variant: chain 1 F29I N35A
[A] ≤ 5.00

[Q] Dear colleague, I am looking for the recorded pKd of the following variant: chain 1 G100R G104V M105S
[A] ≤ 5.00

# credit: the FLAb antibody collection (doi:10.7554/elife.23156)
